Where a SMILES comes first, the peptide text is derived from it.
Lab note: cut-off is 2. Strictly less in logP is label 1. Exactly 2 or more is label 0.

I wonder whether c1ccc([C@H]2CN3CCSC3=N2)cc1 has logP below 2. Can you tell? label 1

# repeat for Cc1ccc(Cl)cc1O label 0

# repeat for Cc1ccc(CN2CCNC2=C[N+](=O)[O-])cn1 label 1

# repeat for O=C1C(=O)N(c2ccccc2)C(=O)c2ccccc21 label 1

# repeat for OC1CCN(CCCc2ccccc2COc2ccc(F)cc2)CC1 label 0

# repeat for CC(C)CC(C)CC(C)OC(=O)c1ccc(NC(=O)N(C)C)cc1Cl (centres undefined) label 0

# repeat for Fc1ccc(SCc2ccc(CCCN3CCOCC3)cc2)cc1 label 0

# repeat for CN(C)c1ccc2c(c1)C(=O)N(OS(C)(=O)=O)C2=O label 1

# repeat for CCC(CC)C(=O)NS(=O)(=O)c1ccc(C(F)(F)F)cc1N label 0

# repeat for Cc1cn(C2CC(N=[N+]=[N-])C(COC(=O)CNC(=O)C34CC5CC(CC(C5)C3)C4)O2)c(=O)[nH]c1=O (centres undefined) label 0

New cases:
I wonder whether CN(C)N=Nc1ccc(CC(=O)O)cc1 has logP below 2. Can you tell? label 1

# repeat for O=c1nc(N=CN2CCCC2)ccn1C1OC(CO)C(O)C1O (centres undefined) label 1

# repeat for CC(=O)N[C@@H](Cc1c[nH]c2ccccc12)C(=O)N[C@@H](C)C(=O)N[C@@H](C)C(N)=O (Ac-Trp-Ala-Ala-NH2) label 1

# repeat for Nc1ccccc1S(N)(=O)=O label 1

# repeat for CN(C)CCC[N+]1([O-])c2ccccc2Sc2ccccc21 label 1

# repeat for CC1(C)CCCC(C)(C)N1[O] label 1

# repeat for CCC(=O)C(CS(=O)(=O)c1ccc(C)cc1)c1ccc(OC)cc1 (centres undefined) label 0

# repeat for Clc1ccc(Cl)c(-c2ccc(Cl)c(Cl)c2Cl)c1 label 0

# repeat for CCCNC(=O)C1(O)C(C)CC2C3CCC4=CC(=O)C=CC4(C)C3(F)C(O)CC21C (centres undefined) label 0

# repeat for CCOC(=O)C(C)Oc1ccc(Oc2cnc3ccccc3n2)cc1 (centres undefined) label 0

# repeat for Cc1[nH]cnc1CSCCNc1cc(=O)cc[nH]1 label 1

# repeat for Clc1cccc(-c2cc(Cl)c(Cl)c(Cl)c2Cl)c1Cl label 0

# repeat for CCCCN1C(=O)NC(=O)C(=O)C1=O label 1

----------
Label scheme, based on logP: c1 (below 1), c2 (1 to below 3), c3 (3 or more)

Lab note: sort CCCCc1ccc(C(=O)OCCN(C)C)cc1 into the matching logP band. c3

----------
METRIC NAME: logP
Give only the figure.

Solved cases (2 shown):
Could you share which logP value was measured for O=C(CCCN1CCC(C(O)(c2ccccc2)c2ccccc2)CC1)c1ccccc1 ? 4.42

# repeat for CSc1nc(Nc2ccc(Cl)cc2)nc(C(Cl)(Cl)Cl)n1 5.71

New cases:
Could you share which logP value was measured for CCN(CC)C(=O)c1cccc2c1C(=O)C(=O)N(CC)C2=O ? 0.78

# repeat for O=C(O)CCc1cc(=O)c2cc3c(cc2o1)CCCC3 2.85

# repeat for CCC(C)C(=O)OC1CCC=C2C=CC(C)C(CCC(O)CC(O)CC(=O)O)C21 (configuration not stated) 3.6

# repeat for NC(=O)Cc1cccc2cccnc12 1.87

# repeat for O=[N+]([O-])c1c(Cl)c(Cl)cc(Cl)c1Cl 4.38

# repeat for CCC(C)OC(=O)C(C(=O)OC(C)CC)=C1SC=CS1 (configuration not stated) 4.89

----------
Overview of recorded logP for various compounds
Give only the figure.

Could you share which logP value was measured for CNC(=NC#N)Nc1cccc(-c2csc(N=C(N)N)n2)c1 ? 1.6

# repeat for Cc1ccc(C)c(Cl)c1 3.86

New cases:
Could you share which logP value was measured for COc1ccc(OC)c(Cc2cnc(N)nc2N)c1 ? 1.7

# repeat for CSCCC(NC(C)=O)C(=O)NC(Cc1ccccc1)C(N)=O (stereo not given) 0.42

# repeat for COC1CC(OC2CCC3(C)C(CCC4C3CCC3(C)C(C5=CC(=O)OC5)C(OC(C)=O)CC43OC(C)=O)C2)OC(C)C1O (stereo not given) 2.95

# repeat for CCCCCNC(=O)C1(O)C(C)CC2C3CCC4=CC(=O)C=CC4(C)C3(F)C(O)CC21C (stereo not given) 3.64

# repeat for CC(=O)N(CCO)c1c(I)c(C(=O)NC(CO)CO)c(I)c(C(=O)NC(CO)CO)c1I -2.33

----------
Overview of recorded logP for various molecules
Give only the figure.

Could you share which logP value was measured for CCC(=O)C1(c2cccc(OC(C)=O)c2)CCN(C)CC1 ? 1.05

# repeat for CCC1(C(C)c2ccccc2)C(=O)NC(=O)N(C)C1=O (stereo unspecified) 3.14

# repeat for Cc1ccc(C)c(NN=C(C#N)C#N)c1 3.08

# repeat for COc1ccc(C(=O)NP(=O)(N2CC2)N2CC2)cc1 1.08

# repeat for COC(=O)C1CC2C3CCC4=CC(=O)C=CC4(C)C3(F)C(O)CC2(C)C1C(=O)CO (stereo unspecified) 1.78

# repeat for CC(CCC(N)=O)n1nnc2ccccc21 (stereo unspecified) 1.15

# repeat for CCN1CC(C(O)C(CC2CCCCC2)NC(=O)C(Cc2c[nH]cn2)NC(=O)C(Cc2ccc(OC)cc2)NC(=O)N(C)CCOCOC)OC1=O (stereo unspecified) 2.3

# repeat for O=[N+]([O-])c1cnc(C=Cc2ccccc2)n1CCO 2.25

# repeat for O=C(O)CCCCCCCc1ccccc1 4.09

# repeat for CC(C)OC(=O)n1cc(F)c(=O)[nH]c1=O 0.2

New cases:
Could you share which logP value was measured for Cc1ncc([N+](=O)[O-])n1CCSC(=S)N(C)C ? 1.28

----------
If the reported logP equals or exceeds 2, assign 1. If not, assign -1.

Record excerpt, results attached:
# bool: logP of Nc1nc2c(ncn2C2OC(CO)CC2F)c(=O)[nH]1 (configuration not stated) >= 2 -1

# repeat for Cn1c([N+](=O)[O-])cnc1COc1ccc(Cl)cc1 -1

# repeat for NC(=O)c1cc2ccccc2o1 -1

Now consider the entry below.
# bool: logP of FC(F)(F)c1ccccc1C1OCC2ON=C(c3ccccc3)C2CO1 (configuration not stated) >= 2 1

----------
If the reported logP equals or exceeds 0.4, assign T. If not, assign F.

# bool: logP of CCCCCCCOc1ccccc1NC(=O)OCCN1CCOCC1 >= 0.4 T

New cases:
# bool: logP of CSCCC(NC(C)=O)C(=O)NC(C(N)=O)C(C)C (stereo unspecified) >= 0.4 F

----------
Where a SMILES comes first, the peptide text is derived from it.
METRIC NAME: logP

Solved cases (3 shown):
Could you share which logP value was measured for CC1=CCC2C(C1)c1c(O)cc(NS(C)(=O)=O)cc1OC2(C)C (stereo unspecified) ? 3.12

# repeat for Clc1cccc(-c2c(Cl)cc(Cl)c(Cl)c2Cl)c1Cl 7.25

# repeat for CN(C)N=Nc1ccc(S(C)(=O)=O)cc1 1.59

New cases:
Could you share which logP value was measured for CCCCCCCOc1cccc(NC(=O)OCCN2CCOCC2)c1 ? 5.28

# repeat for COc1nc(N)nc(C(Cl)(Cl)Cl)n1 2.39

# repeat for O=[N+]([O-])c1nccn1CCC(O)CO (stereo unspecified) -0.9

# repeat for CC(=NOCC(=O)O)c1cc(Oc2ccc(C(F)(F)F)cc2Cl)ccc1[N+](=O)[O-] 4.3

# repeat for CNC(=C[N+](=O)[O-])NCCSCc1nccs1 -0.15

# repeat for CCOC(=O)CCC(C)n1nc2ccccc2n1 (stereo unspecified) 3.05

# repeat for CC(=O)OC1CC(OC2CCC3(C)C(CCC4C3CC(O)C3(C)C(C5=CC(=O)OC5)CCC43O)C2)OC(C)C1OC1CC(O)C(OC2CC(O)C(O)C(C)O2)C(C)O1 (stereo unspecified) 1.71

# repeat for CC(=O)NC(Cc1ccccc1)C(=O)NC(CCC(=O)O)C(=O)NC(Cc1ccccc1)C(N)=O (stereo not drawn) (Ac-Phe-Glu-Phe-NH2; configuration not given here) 0.65

# repeat for Clc1ccc(Cl)c(-c2c(Cl)c(Cl)c(Cl)c(Cl)c2Cl)c1 7.93

# repeat for O=C(NN1CCCCC1)NS(=O)(=O)c1ccc(Cl)cc1 0.84

# repeat for CC(=O)NC(CCCCN)C(=O)NC(CC(C)C)C(N)=O (stereo not drawn) (Ac-Lys-Leu-NH2; configuration not given here) -0.26

# repeat for c1nnn(C23CC4CC(CC(C4)C2)C3)n1 2.95

----------
Overview of recorded logP for various compounds

Could you share which logP value was measured for CCCCCc1cc(OCc2ccc(-c3ccccc3)cc2)c2c(c1)OC(C)(C)C1CC=C(C)CC21 (configuration not stated) ? 10.9

# repeat for CCCCCCC(=O)N1CCCC1=O 3.04

# repeat for Clc1ccc(-c2c(Cl)c(Cl)c(Cl)c(Cl)c2Cl)cc1 7.31

# repeat for CN(CO)c1nc(N(C)CO)nc(N(C)CO)n1 0.4

# repeat for O=c1[nH]c2ccccc2n1C1CCN(CC(O)C2COc3ccccc3O2)CC1 (configuration not stated) 3.43

# repeat for NC(=O)c1ccccc1N=NN1CCC1 2.91

# repeat for CC12CCC(=O)C=C1CCC1C2CCC2(C)C1CCC2(O)C(O)CO (configuration not stated) 2

# repeat for Cc1ccc(SCCNc2ccccc2C(N)=O)cc1 3.15

New cases:
Could you share which logP value was measured for C1CC2=NOS3=C2C(=NO3)C1 ? 1.1

# repeat for CCOc1ccc(C2(C(=O)OC)CC(F)(F)C2(F)F)cc1 (configuration not stated) 4.06

# repeat for CC(OCc1cn(C)c(C=NO)n1)C(C)(C)C (configuration not stated) 2.53

# repeat for O=NN(CCCl)C(=O)NC1CCCCC1C(=O)O (configuration not stated) 2.01
